- System: SF-539 CNS
- assay.info: NCI-60 one-dose screen, 48 h
- condition.details: 10 µM unless noted
About 83,000 compounds went through this panel and 20% of them were active in at least one assay; those are over-represented in the sample as a whole. The source made the active and inactive calls. The calls were made as follows: active = growth percent below 10; inactive = the rest.
Labels: Yes = active, No = inactive

1. COc1ccc2c(c1)c(CC(=O)[Se]CC#N)c(C)n2C(=O)c1ccc(Cl)cc1; Yes
2. COc1cc2c(cc1OC)C(Sc1ccc(C)cc1)c1c(nc(N)c(C#N)c1N)O2 (centres undefined); Yes
3. O=C(CSc1nc2ccccc2c(=O)n1-c1ccccc1)Nc1cccc(C(=O)/C=C/c2ccccc2Cl)c1; No
4. COC(=O)C[Se]C(=O)Cc1c(C)n(C(=O)c2ccc(Cl)cc2)c2ccc(OC)cc12; No
